- target-entity: human progesterone receptor B (Homo sapiens, UniProt P06401)
- Sequence (P06401 1-933): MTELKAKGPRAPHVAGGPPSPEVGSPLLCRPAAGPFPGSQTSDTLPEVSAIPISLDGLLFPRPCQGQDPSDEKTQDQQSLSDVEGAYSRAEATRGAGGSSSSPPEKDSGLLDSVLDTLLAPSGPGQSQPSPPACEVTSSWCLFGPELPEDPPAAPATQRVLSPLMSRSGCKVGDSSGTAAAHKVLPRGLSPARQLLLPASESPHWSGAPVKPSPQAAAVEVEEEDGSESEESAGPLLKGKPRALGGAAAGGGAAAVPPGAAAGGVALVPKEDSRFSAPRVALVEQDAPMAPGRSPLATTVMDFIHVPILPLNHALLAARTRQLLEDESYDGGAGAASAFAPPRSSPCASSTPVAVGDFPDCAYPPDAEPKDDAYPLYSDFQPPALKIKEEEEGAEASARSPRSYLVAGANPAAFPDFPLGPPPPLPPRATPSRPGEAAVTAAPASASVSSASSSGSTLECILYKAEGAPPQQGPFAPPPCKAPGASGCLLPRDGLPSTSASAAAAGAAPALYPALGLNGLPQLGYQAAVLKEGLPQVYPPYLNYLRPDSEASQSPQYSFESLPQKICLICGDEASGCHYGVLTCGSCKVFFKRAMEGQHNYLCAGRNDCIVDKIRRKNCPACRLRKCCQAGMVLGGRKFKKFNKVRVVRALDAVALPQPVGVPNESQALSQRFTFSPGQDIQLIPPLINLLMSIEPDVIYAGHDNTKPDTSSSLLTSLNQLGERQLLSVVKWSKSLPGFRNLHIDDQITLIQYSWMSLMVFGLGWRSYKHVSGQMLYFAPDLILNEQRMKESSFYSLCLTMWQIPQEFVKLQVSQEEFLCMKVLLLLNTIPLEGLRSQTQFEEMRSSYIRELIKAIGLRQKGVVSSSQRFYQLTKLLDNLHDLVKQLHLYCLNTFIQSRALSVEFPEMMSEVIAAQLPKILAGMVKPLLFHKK
- assay-protocol: Progesterone-receptor-antagonistic action in stably transfected SK-N-MC cells, MTV-LUC reporter (PR-B)
- measurement-context: antagonistic potency vs 0.1 nmol/l promegestone, 24 hours, luciferase
This listing pairs compounds with measured IC50.
quantity-measured: IC50 (nM)

chemical-smiles	observed-result
C[C@]12C[C@H](c3ccc(C(=O)N4CCC(C(=O)O)CC4)cc3)C3=C4CCC(=O)C=C4CC[C@H]3[C@@H]1CC[C@@]2(O)C(F)(F)C(F)(F)F	10
COC(=O)C1CCN(C(=O)c2ccc([C@H]3C[C@@]4(C)[C@@H](CC[C@@]4(O)C(F)(F)C(F)(F)F)[C@@H]4CCC5=CC(=O)CCC5=C43)cc2)CC1	11
CC(C)(C)OC(=O)N1CCN(C(=O)c2ccc([C@H]3C[C@@]4(C)[C@@H](CC[C@@]4(O)C(F)(F)C(F)(F)F)[C@@H]4CCC5=CC(=O)CCC5=C43)cc2)CC1	1.6

###

- target-entity: human progesterone receptor A (Homo sapiens, UniProt P06401)
- assay-protocol: Progesterone-receptor-antagonistic action in stably transfected SK-N-MC cells, MTV-LUC reporter (PR-A)
- measurement-context: antagonistic potency vs 0.1 nmol/l promegestone, 24 hours, luciferase
quantity-measured: IC50 (nM)

chemical-smiles	quantity-measured	observed-result
C[C@]12C[C@H](c3ccc(C(=O)N4CCN(c5ccncc5)CC4)cc3)C3=C4CCC(=O)C=C4CC[C@H]3[C@@H]1CC[C@@]2(O)C(F)(F)C(F)(F)F	IC50	26
C[C@]12C[C@H](c3ccc(C(=O)N4CCOCC4)cc3)C3=C4CCC(=O)C=C4CC[C@H]3[C@@H]1CC[C@@]2(O)C(F)(F)C(F)(F)F	IC50	39
CN(CCc1ccccc1)C(=O)c1ccc([C@H]2C[C@@]3(C)[C@@H](CC[C@@]3(O)C(F)(F)C(F)(F)F)[C@@H]3CCC4=CC(=O)CCC4=C32)cc1	IC50	10.8

###

- target-entity: human progesterone receptor B (Homo sapiens, UniProt P06401)
- Construct: expressed in transfected cells; host or cells: SK-N-MC human neuroblastoma cells, stably transfected
- assay-protocol: Progesterone-receptor-antagonistic action in stably transfected SK-N-MC cells, MTV-LUC reporter (PR-B)
- Assay type: cell-based
- measurement-context: antagonistic potency vs 0.1 nmol/l promegestone, 24 hours, luciferase

compound	IC50
CN(C)C(=O)c1ccc([C@H]2C[C@@]3(C)[C@@H](CC[C@@]3(O)C(F)(F)C(F)(F)F)[C@@H]3CCC4=CC(=O)CCC4=C32)cc1 [Example 2]	1.2 nM
CN1CCN(C(=O)c2ccc([C@H]3C[C@@]4(C)[C@@H](CC[C@@]4(O)C(F)(F)C(F)(F)F)[C@@H]4CCC5=CC(=O)CCC5=C43)cc2)CC1 [Example 3]	44 nM
CN(C)CCN(C)C(=O)c1ccc([C@H]2C[C@@]3(C)[C@@H](CC[C@@]3(O)C(F)(F)C(F)(F)F)[C@@H]3CCC4=CC(=O)CCC4=C32)cc1 [Example 9]	18 nM

###

- target-entity: human progesterone receptor B (Homo sapiens)
- assay-protocol: Progesterone-receptor-antagonistic action in stably transfected SK-N-MC cells, MTV-LUC reporter (PR-B)
- measurement-context: antagonistic potency vs 0.1 nmol/l promegestone, 24 hours, luciferase
pIC50: −log10 of the molar value.

compound	pIC50
CN(C)CCCNC(=O)c1ccc([C@H]2C[C@@]3(C)[C@@H](CC[C@@]3(O)C(F)(F)C(F)(F)F)[C@@H]3CCC4=CC(=O)CCC4=C32)cc1 [Example 8]	7.48
COC(=O)c1ccccc1NC(=O)c1ccc([C@H]2C[C@@]3(C)[C@@H](CC[C@@]3(O)C(F)(F)C(F)(F)F)[C@@H]3CCC4=CC(=O)CCC4=C32)cc1 [Example 10]	9.00
C[C@]12C[C@H](c3ccc(C(N)=O)cc3)C3=C4CCC(=O)C=C4CC[C@H]3[C@@H]1CC[C@@]2(O)C(F)(F)C(F)(F)F [Example 1]	9.05
C[C@]12C[C@H](c3ccc(C(=O)N4CCNCC4)cc3)C3=C4CCC(=O)C=C4CC[C@H]3[C@@H]1CC[C@@]2(O)C(F)(F)C(F)(F)F [Example 73]	6.92
CN(C)CCNC(=O)c1ccc([C@H]2C[C@@]3(C)[C@@H](CC[C@@]3(O)C(F)(F)C(F)(F)F)[C@@H]3CCC4=CC(=O)CCC4=C32)cc1 [Example 7]	7.52

###

- target-entity: UniProtKB P06401
- Sequence (P06401 1-769 isoform P06401-2): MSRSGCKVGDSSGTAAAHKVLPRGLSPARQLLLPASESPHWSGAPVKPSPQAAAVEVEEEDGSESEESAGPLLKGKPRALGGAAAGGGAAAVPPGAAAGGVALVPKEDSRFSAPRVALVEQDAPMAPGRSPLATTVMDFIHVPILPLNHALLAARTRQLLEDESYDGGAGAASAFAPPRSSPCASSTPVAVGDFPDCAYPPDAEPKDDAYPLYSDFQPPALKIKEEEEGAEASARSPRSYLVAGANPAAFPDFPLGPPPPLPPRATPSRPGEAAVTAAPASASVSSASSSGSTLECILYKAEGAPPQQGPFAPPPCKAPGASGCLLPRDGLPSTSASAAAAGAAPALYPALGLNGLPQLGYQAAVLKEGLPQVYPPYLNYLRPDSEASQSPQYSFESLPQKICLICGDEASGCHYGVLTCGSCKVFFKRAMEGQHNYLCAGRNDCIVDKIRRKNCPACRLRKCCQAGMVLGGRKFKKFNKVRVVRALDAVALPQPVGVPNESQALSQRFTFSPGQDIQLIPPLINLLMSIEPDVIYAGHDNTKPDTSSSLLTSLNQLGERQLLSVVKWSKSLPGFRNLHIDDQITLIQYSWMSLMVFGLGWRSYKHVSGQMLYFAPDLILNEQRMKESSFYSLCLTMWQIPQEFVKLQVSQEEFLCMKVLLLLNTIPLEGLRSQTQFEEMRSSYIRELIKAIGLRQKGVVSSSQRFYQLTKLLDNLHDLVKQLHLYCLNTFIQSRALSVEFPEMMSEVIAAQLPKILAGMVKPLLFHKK
- assay-protocol: Progesterone-receptor-antagonistic action in stably transfected SK-N-MC cells, MTV-LUC reporter (PR-A)
- measurement-context: antagonistic potency vs 0.1 nmol/l promegestone, 24 hours, luciferase
Classify: Criterion met when IC50 is strictly less than 10 nM; Criterion not met when IC50 is not.

chemical-smiles	class
C[C@]12C[C@H](c3ccc(C(=O)NCc4ccccn4)cc3)C3=C4CCC(=O)C=C4CC[C@H]3[C@@H]1CC[C@@]2(O)C(F)(F)C(F)(F)F	Criterion met
COc1cccc(NC(=O)c2ccc([C@H]3C[C@@]4(C)[C@@H](CC[C@@]4(O)C(F)(F)C(F)(F)F)[C@@H]4CCC5=CC(=O)CCC5=C43)cc2)c1	Criterion met
C[C@]12C[C@H](c3ccc(C(=O)NCCCN4CCOCC4)cc3)C3=C4CCC(=O)C=C4CC[C@H]3[C@@H]1CC[C@@]2(O)C(F)(F)C(F)(F)F	Criterion not met
C[C@]12C[C@H](c3ccc(C(=O)Nc4ccc(Cl)cc4)cc3)C3=C4CCC(=O)C=C4CC[C@H]3[C@@H]1CC[C@@]2(O)C(F)(F)C(F)(F)F	Criterion not met
C[C@]12C[C@H](c3ccc(C(=O)NCC4CC4)cc3)C3=C4CCC(=O)C=C4CC[C@H]3[C@@H]1CC[C@@]2(O)C(F)(F)C(F)(F)F	Criterion met
CN(Cc1ccccn1)C(=O)c1ccc([C@H]2C[C@@]3(C)[C@@H](CC[C@@]3(O)C(F)(F)C(F)(F)F)[C@@H]3CCC4=CC(=O)CCC4=C32)cc1	Criterion not met
CN(Cc1cccnc1)C(=O)c1ccc([C@H]2C[C@@]3(C)[C@@H](CC[C@@]3(O)C(F)(F)C(F)(F)F)[C@@H]3CCC4=CC(=O)CCC4=C32)cc1	Criterion not met
C[C@]12C[C@H](c3ccc(C(=O)N4CCC(c5ccccc5)CC4)cc3)C3=C4CCC(=O)C=C4CC[C@H]3[C@@H]1CC[C@@]2(O)C(F)(F)C(F)(F)F	Criterion met
CC(C)(C)OC(=O)N1CCN(C(=O)c2ccc([C@H]3C[C@@]4(C)[C@@H](CC[C@@]4(O)C(F)(F)C(F)(F)F)[C@@H]4CCC5=CC(=O)CCC5=C43)cc2)CC1	Criterion met
CNC(=O)CN1CCN(C(=O)c2ccc([C@H]3C[C@@]4(C)[C@@H](CC[C@@]4(O)C(F)(F)C(F)(F)F)[C@@H]4CCC5=CC(=O)CCC5=C43)cc2)CC1	Criterion not met
